These entries and their values trace back to patent US20240327535A1.

target of assay: T1, human BCMA on NCI-H929, OPM2 and Raji cells (human, UniProt Q02223 1-184)
T1 chain: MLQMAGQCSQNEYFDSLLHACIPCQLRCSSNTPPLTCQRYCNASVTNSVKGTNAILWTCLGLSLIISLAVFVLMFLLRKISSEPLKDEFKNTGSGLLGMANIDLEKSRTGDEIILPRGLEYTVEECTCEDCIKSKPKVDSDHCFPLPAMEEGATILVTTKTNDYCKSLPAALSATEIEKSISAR
assay notes: cell-based or functional assay
assay readout: GI50 (nM) OPM2.1, cell viability
Reply with just the number (in nM).

Task: Please report the recorded GI50 (nM) OPM2.1, cell viability for AB214-ADL1-D2-02 (antibody, human IgG1, kappa, V domains shown, ADL1-D2 linker-payload on cysteine residues of the antibody, DAR 4.12) VH: QVQLVQSGAEVKKPGSSVKVSCKASGGTFSNYWIHWVRQAPGQGLEWMGATYRSQSDTYYNQKYKSRVTITADKSTSTAYMELSSLRSEDTAVYYCARGAVYHGYDVIDNWGQGTLVTVSS VL: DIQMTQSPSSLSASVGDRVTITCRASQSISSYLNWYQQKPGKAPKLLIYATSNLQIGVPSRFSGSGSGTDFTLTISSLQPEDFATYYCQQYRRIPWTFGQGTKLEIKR .
Output: 1.54

Task: Entry under review: AB218-ADL1-D2-02 (antibody, human IgG1, kappa, V domains shown, ADL1-D2 linker-payload on cysteine residues of the antibody, DAR 3.77) VH: QVQLVQSGAEVKKPGSSVKVSCKASGGTFSNYWIHWVRQAPGQGLEWMGATYRSQSTTYYNQKFKSRVTITADKSTSTAYMELSSLRSEDTAVYYCARGAVYHGYDVIDNWGQGTLVTVSS VL: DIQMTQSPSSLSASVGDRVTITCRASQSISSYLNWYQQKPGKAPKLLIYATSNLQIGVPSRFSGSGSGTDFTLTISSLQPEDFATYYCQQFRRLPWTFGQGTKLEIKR . Reported GI50 (nM) OPM2.1, cell viability?
Output: 0.985

Task: // query GI50 (nM) OPM2.1, cell viability value for entry AB215-ADL1-D2-02 (antibody, human IgG1, kappa, V domains shown, ADL1-D2 linker-payload on cysteine residues of the antibody, DAR 3.96) VH: QVQLVQSGAEVKKPGSSVKVSCKASGGTFTNYWIHWVRQAPGQGLEWMGGTYRSHSTTYYNQKFKSRVTITADKSTSTAYMELSSLRSEDTAVYYCARGAVYHGYDVIDNWGQGTLVTVSS VL: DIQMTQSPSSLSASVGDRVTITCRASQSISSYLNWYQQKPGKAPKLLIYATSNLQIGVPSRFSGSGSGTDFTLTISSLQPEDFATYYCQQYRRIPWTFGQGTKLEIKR
Output: 4.04

Task: Need GI50 (nM) OPM2.1, cell viability, item AB216-ADL1-D2-02 (antibody, human IgG1, kappa, V domains shown, ADL1-D2 linker-payload on cysteine residues of the antibody, DAR 3.8) VH: QVQLVQSGAEVKKPGSSVKVSCKASGGTFSNYWIHWVRQAPGQGLEWMGATYRIQSDTYYNQKYKSRVTITADKSTSTAYMELSSLRSEDTAVYYCARGAVYHGYDVIDNWGQGTLVTVSS VL: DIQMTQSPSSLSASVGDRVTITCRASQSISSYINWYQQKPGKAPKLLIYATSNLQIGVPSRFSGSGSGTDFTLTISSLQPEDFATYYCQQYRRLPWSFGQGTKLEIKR
Output: 1.56
